Sourced from paper PMC9090415

molecular target: UniProtKB Q8ILY1; test: Fluorescence-based high-throughput DNA polymerase assay (molecular beacon), primary screen and dose-response; format: biochemical; conditions: DRC-2; 40'; concentration 40;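 further: compound concentration given in µM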
Sequence (Q8ILY1 entry or part of it): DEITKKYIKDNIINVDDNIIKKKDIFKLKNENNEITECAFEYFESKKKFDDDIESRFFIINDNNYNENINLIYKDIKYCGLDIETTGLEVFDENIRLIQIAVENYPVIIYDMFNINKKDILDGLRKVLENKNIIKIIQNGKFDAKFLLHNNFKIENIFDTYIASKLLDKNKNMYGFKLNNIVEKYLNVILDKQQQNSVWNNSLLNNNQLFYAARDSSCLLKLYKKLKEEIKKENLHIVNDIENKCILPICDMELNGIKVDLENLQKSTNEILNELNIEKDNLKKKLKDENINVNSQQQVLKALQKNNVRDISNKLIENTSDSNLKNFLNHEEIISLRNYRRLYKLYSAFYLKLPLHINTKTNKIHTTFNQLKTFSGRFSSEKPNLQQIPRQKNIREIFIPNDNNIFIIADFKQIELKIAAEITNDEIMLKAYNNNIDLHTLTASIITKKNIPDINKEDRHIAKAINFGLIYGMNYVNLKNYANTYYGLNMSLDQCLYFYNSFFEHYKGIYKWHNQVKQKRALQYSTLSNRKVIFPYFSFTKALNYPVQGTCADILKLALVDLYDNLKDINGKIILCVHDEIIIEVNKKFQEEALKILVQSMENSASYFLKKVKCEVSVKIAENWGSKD
Value Kind: % inhibition Apol 40' (%)
Respond with the bare value in %.

Sample COc1cc(Cl)c(C)cc1NC(=O)Cn1ccc2c(=O)[nH]ccc21 [Molecule 33] — what was its % inhibition Apol 40'?
62

Then this compound: CCCCC(=O)N1CCc2c(nc3cc(-c4ccccc4Cl)[nH]n3c2=O)C1 [Molecule 37]
62

---

Attribute: % inhibition T4 90' 5
Biological target: bacteriophage T4 DNA polymerase (Enterobacteria phage T4)
Construct: made in house
Sequence (P04415 1-898): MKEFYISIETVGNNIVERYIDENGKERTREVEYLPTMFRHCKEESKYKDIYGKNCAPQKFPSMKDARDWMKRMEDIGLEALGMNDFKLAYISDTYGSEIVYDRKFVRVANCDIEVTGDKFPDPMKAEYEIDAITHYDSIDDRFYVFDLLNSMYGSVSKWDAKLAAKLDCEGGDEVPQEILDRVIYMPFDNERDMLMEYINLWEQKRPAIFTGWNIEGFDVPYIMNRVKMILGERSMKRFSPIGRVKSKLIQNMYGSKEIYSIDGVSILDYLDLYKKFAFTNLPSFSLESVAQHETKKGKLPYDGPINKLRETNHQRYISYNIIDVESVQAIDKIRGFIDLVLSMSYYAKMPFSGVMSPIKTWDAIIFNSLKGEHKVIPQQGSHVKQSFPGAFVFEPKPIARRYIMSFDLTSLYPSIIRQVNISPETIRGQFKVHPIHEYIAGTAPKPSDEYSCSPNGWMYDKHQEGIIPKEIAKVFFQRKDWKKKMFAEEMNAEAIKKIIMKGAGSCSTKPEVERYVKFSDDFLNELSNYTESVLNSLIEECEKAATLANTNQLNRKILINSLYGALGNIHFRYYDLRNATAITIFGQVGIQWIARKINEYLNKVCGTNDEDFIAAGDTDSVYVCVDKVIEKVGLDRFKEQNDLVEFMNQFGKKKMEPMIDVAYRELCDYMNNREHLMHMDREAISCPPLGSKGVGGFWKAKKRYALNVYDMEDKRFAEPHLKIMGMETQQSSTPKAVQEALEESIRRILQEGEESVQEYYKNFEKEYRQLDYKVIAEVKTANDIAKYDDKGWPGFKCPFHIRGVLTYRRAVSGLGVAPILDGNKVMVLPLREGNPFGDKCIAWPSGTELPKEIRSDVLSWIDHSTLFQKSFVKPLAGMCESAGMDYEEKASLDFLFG
Assay: Counter-screen against bacteriophage T4 DNA polymerase
Type: biochemical
Settings: DRC-2; read at 90'; concentration 5
Respond with the bare value in %.

COc1ccc(C2CC(c3ccc(Cl)cc3Cl)Nc3nc(N)nn32)cc1OC (centres unmarked)	-3

Sample "O=C(CCc1csc(NC(=O)Nc2ccccc2)n1)Nc1nc2ccccc2s1" — what was its % inhibition T4 90' 5?
3

Then this compound: "Cc1ccsc1Cn1c(C)ccc1C"
-2.51

Then this compound: "CC(=O)Nc1cc(C(=O)c2cccs2)nn(-c2ccc(Cl)cc2)c1=O"
5

Then this compound: C#CC(C=CC)OC(=O)c1ccccc1C(=O)O (centres unmarked)
-6

Then this compound: "Cc1nc(C)c2c(n1)N(CC1CCCCC1)C(=O)CC2"
5

Then this compound: O=C1CSC2=NC3=C(CCc4ccccc43)C(c3cccs3)N12 (centres unmarked)
18

Then this compound: "Cn1nc(-c2nnc(-c3ccccc3F)o2)c2c1CCN(C(=O)c1ccccc1Cl)C2"
-3.55
